- targetOrTestSystem: T1, 4H794-AA
- T1 chain: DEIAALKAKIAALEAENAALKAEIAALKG
- testSummary: two-hybrid library CCmax;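 also: natural log of median RNA to DNA barcode read ratio; higher means stronger binding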
- assayContext: mean of both orientations
Each entry below carries its recorded interaction score.

Some solved entries appear below for comparison.
DKNAALKAEIAALEAKIAALKAENAALEG [4H3627-AA] ... -1.93
DEIAALKAENAALKAEIAALKAKIAALEG [4H717-AA] ... -1.37
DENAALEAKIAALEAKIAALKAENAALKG [4H1324-AA] ... -1.34
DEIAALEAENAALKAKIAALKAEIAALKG [4H234-AA] ... -1.24
DEIAALEAKIAALKAENAALEAKIAALKG [4H342-AA] ... 1.25

The binder DEIAALEAEIAALEAKIAALKAKNAALKG [4H48-AA] showed interaction score equal to -1.49

Form field interaction score, entry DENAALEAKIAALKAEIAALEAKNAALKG [4H1352-AA] : -1.64

Query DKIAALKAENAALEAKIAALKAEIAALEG [4H2729-AA] yields interaction score of -1.09

// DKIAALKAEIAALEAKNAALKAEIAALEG [4H2617-AA] : interaction score value = 1.15

Given item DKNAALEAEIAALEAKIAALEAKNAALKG [4H3112-AA] , the value recorded as its interaction score is -1.51
